Assay: MTS cell viability assay in HeLa
Format: cell-based
Conditions: human, HeLa cells; HeLa, 50 μM, 18 h
metric name: viability at 18 h, 50 µM (%)
Quick note: give the figure in %, leave out the unit.

Sample Cc1cccc(C2C(C(=O)[O-])N(CCc3ccccc3)c3ccccc[c+]3N2Cc2ccccc2)c1 (stereo not shown) [Compound 6e] — what was its viability at 18 h, 50 µM?
15.2

====

Entries annotated with measured melting point

A selection of reference data follows.
CCCCCCCCN1[c+]2cccccc2N(CCc2ccccc2)C(C(=O)[O-])C1c1ccc(F)cc1 (stereo not shown) : 123 to 125 °C
O=C([O-])C1C(c2ccccc2)N(Cc2ccccc2)[c+]2cccccc2N1CCc1ccccc1 (stereo not shown) : 135 to 140 °C

Sample C#CCN1[c+]2cccccc2N(CCc2ccccc2)C(C(=O)[O-])C1c1ccccc1 (stereo not shown) — what was its melting point?
122 to 125 °C

Could you do the same for O=C([O-])C1C(C=Cc2ccccc2)N(Cc2ccccc2)[c+]2cccccc2N1CCc1ccccc1 (stereo not shown) , please?
118 to 120 °C

Hello, the source for this data is paper PMC9814901, in case you need it.
